The reported measurements were obtained from patent US11629201B2.

What Tumor-to-blood was measured for each of the following?
Test system: PC-3 PIP/flu tumor-bearing mice
test_method_notes: Biodistribution studies in PC-3 PIP/flu tumor-bearing mice
condition: 24 h p.i.; PC-3 PIP tumor
Just the number, please.

Ask: Using the record for Cc1ccc(CCCC(=O)NCCCC[C@H](NC(=O)CCC(C(=O)O)N2CCN(CC(=O)O)CCN(CC(=O)O)CC2)C(=O)NC[C@H]2CC[C@H](C(=O)N[C@H](Cc3ccc4ccccc4c3)C(=O)NCCCC[C@@H](NC(=O)N[C@H](CCC(=O)O)C(=O)O)C(=O)O)CC2)cc1 (some centres unmarked) [^64Cu-PSMA-ALB-89, metal not drawn] , report its Tumor-to-blood.
Result: 31.3

Ask: Using the record for Cc1ccc(CCCC(=O)NC(CC(=O)NC(CC(=O)NC(CC(=O)NC(CCCCNC(=O)CN2CCN(CC(=O)O)CCN(CC(=O)O)CCN(CC(=O)O)CC2)C(=O)NCC2CCC(C(=O)NC(Cc3ccc4ccccc4c3)C(=O)NCCCCC(NC(=O)NC(CCC(=O)O)C(=O)O)C(=O)O)CC2)C(=O)O)C(=O)O)C(=O)O)cc1 (centres unmarked) [^177Lu-PSMA-ALB-08, metal not drawn] , report its Tumor-to-blood.
Result: 421
